Below: molecules with IC50 recorded for Isocitrate lyase (Candida albicans, UniProt Q9P8Q7) in separate published works.

Could you share which IC50 value was measured for Oc1cc(O)c(C(c2cc(Br)c(O)cc2O)c2c(Cl)cccc2Cl)cc1Br ?
17.9 µM

Also check CC(C)=CC(C(=O)O)/C(C)=C/CC/C(C)=C/CC[C@]1(C)CCc2cc(O)cc(C)c2O1 (some centres undefined)
> 469 µM

Also check C=CC(C)(CC/C=C(\C)CC/C=C(/C)[C@H](O)C(=O)C=C(C)C)Oc1ccc(O)cc1CC(=O)OC (some centres undefined)
103 µM

Also check COC(=O)c1c[nH]c2ccc(O)cc12
800 µM
